Test: Stability of analytes in rat plasma samples (method validation)
Format: in vitro ADME
Conditions: 25°C for 24 h, high QC nominal concentration, n = 6
Protocol: Stability of the analytes from plasma samples was performed by determining three different concentrations (low, middle, and high samples) in six replicates under different conditions. It included short-term stability which was assessed by keeping samples at room temperature (25°C) for 24 h, stability which was measured using samples stored at 4°C for 24 h, and freeze-thaw stability that was determined after three freeze-thaw cycles at −80°C.
readout: Stability (24 h at room temperature) Mean (%)

CC12CC(O)C3CC1(OC1OC(CO)C(O)C(O)C1O)C3(COC(=O)c1ccccc1)C(=O)O2 (centres unmarked)    108.45
O=C1C[C@@H](c2ccc(O)cc2)Oc2cc(O)ccc21    97.03
CC1(C)[C@@H](O[C@H]2O[C@H](C(=O)O)[C@@H](O)[C@H](O)[C@H]2O[C@@H]2O[C@H](C(=O)O)[C@@H](O)[C@H](O)[C@H]2O)CC[C@]2(C)[C@H]3C(=O)C=C4[C@@H]5C[C@@](C)(C(=O)O)CC[C@]5(C)CC[C@@]4(C)[C@]3(C)CC[C@@H]12    94.94
C[C@@]12C[C@@]3(O)O[C@@H](O1)[C@]1(COC(=O)c4ccccc4)[C@H]3C[C@@]12O[C@@H]1O[C@H](CO)[C@@H](O)[C@H](O)[C@H]1O    109.75
O=C1C[C@@H](c2ccc(O[C@@H]3O[C@H](CO)[C@@H](O)[C@H](O)[C@H]3O)cc2)Oc2cc(O)ccc21    106.73

Source: paper PMC5541792
